target: PRKCA (Homo sapiens, UniProt P17252)
assay_metric: IC50

Query Nc1ncsc1C#Cc1cnc2[nH]ccc2c1 yields IC50 of 1 to 10 µM

Query Nc1ncsc1C#Cc1cccc(O)c1 yields IC50 of > 1 µM

Query c1ccc(Cc2c[nH]c3ncsc23)cc1 [Compound A7, 6-benzyl-4H-pyrrolo[2,3-d]thiazole] yields IC50 of 10 to 100 µM

Query CC(C)(C)OC(=O)Nc1ncsc1C#CCN1C(=O)c2ccccc2C1=O yields IC50 of 1 to 10 µM

Query CC(C)(C)OC(=O)Nc1nc(-c2ccncc2)sc1C#CCN1CCOCC1 yields IC50 of 10 to 100 µM

---

Assign pIC50 to each entry below.
pIC50: −log10 of the molar value.

Item Nc1ncsc1C#Cc1cnc2[nH]ccc2c1 ; assay system UniProtKB Q9H2X6; pIC50 reported as 6.00 to 8.00

Item c1ccc(Cc2c[nH]c3ncsc23)cc1 [Compound A7, 6-benzyl-4H-pyrrolo[2,3-d]thiazole] ; assay system UniProtKB Q9H2X6; pIC50 reported as < 6.00

Item Nc1ncsc1C#Cc1cccc(O)c1 ; assay system UniProtKB Q9H2X6; pIC50 reported as < 6.00

Item CC(C)(C)OC(=O)Nc1nc(-c2ccncc2)sc1C#CCN1CCOCC1 ; assay system UniProtKB Q9H2X6; pIC50 reported as < 6.00

Item CC(C)(C)OC(=O)Nc1ncsc1C#CCN1C(=O)c2ccccc2C1=O ; assay system UniProtKB Q9H2X6; pIC50 reported as 5.00 to 6.00

---

// endpoint IC50 / system MKNK2 (Homo sapiens, UniProt Q9HBH9)

Item CC(C)(C)OC(=O)Nc1ncsc1C#CCN1C(=O)c2ccccc2C1=O [Compound A26] ; assay system MKNK2 (Homo sapiens, UniProt Q9HBH9); IC50 reported as 10000 to 100000 nM

Item CC(C)(C)OC(=O)Nc1nc(-c2ccncc2)sc1C#CCN1CCOCC1 [Compound A25] ; assay system MKNK2 (Homo sapiens, UniProt Q9HBH9); IC50 reported as > 1000 nM

Item Nc1ncsc1C#Cc1cnc2[nH]ccc2c1 [Compound A22] ; assay system MKNK2 (Homo sapiens, UniProt Q9HBH9); IC50 reported as > 1000 nM

Item Nc1ncsc1C#Cc1cccc(O)c1 [Compound A27, 3-(4-aminothiazol-5-ylethynyl)phenol] ; assay system MKNK2 (Homo sapiens, UniProt Q9HBH9); IC50 reported as > 1000 nM

Item c1ccc(Cc2c[nH]c3ncsc23)cc1 [Compound A7, 6-benzyl-4H-pyrrolo[2,3-d]thiazole] ; assay system MKNK2 (Homo sapiens, UniProt Q9HBH9); IC50 reported as > 1000 nM

---

Assign IC50 to each entry below.

Item Nc1ncsc1C#Cc1cnc2[nH]ccc2c1 ; assay system UniProt:P31751; IC50 reported as > 1000 nM

Item Nc1ncsc1C#Cc1cccc(O)c1 ; assay system UniProt:P31751; IC50 reported as 1000 to 10000 nM

Item c1ccc(Cc2c[nH]c3ncsc23)cc1 [Compound A7, 6-benzyl-4H-pyrrolo[2,3-d]thiazole] ; assay system UniProt:P31751; IC50 reported as > 1000 nM

Item CC(C)(C)OC(=O)Nc1ncsc1C#CCN1C(=O)c2ccccc2C1=O ; assay system UniProt:P31751; IC50 reported as > 1000 nM

Item CC(C)(C)OC(=O)Nc1nc(-c2ccncc2)sc1C#CCN1CCOCC1 ; assay system UniProt:P31751; IC50 reported as 1000 to 10000 nM

---

assay_metric: IC50

Item Nc1ncsc1C#Cc1cccc(O)c1 ; assay system DYRK3 (Homo sapiens); IC50 reported as 10 to 100 µM

Item CC(C)(C)OC(=O)Nc1ncsc1C#CCN1C(=O)c2ccccc2C1=O ; assay system DYRK3 (Homo sapiens); IC50 reported as 1 to 10 µM

Item c1ccc(Cc2c[nH]c3ncsc23)cc1 [Compound A7, 6-benzyl-4H-pyrrolo[2,3-d]thiazole] ; assay system DYRK3 (Homo sapiens); IC50 reported as 10 to 100 µM

Item Nc1ncsc1C#Cc1cnc2[nH]ccc2c1 ; assay system DYRK3 (Homo sapiens); IC50 reported as 10 to 100 µM

Item CC(C)(C)OC(=O)Nc1nc(-c2ccncc2)sc1C#CCN1CCOCC1 ; assay system DYRK3 (Homo sapiens); IC50 reported as 10 to 100 µM

---

Protein target, amino acids: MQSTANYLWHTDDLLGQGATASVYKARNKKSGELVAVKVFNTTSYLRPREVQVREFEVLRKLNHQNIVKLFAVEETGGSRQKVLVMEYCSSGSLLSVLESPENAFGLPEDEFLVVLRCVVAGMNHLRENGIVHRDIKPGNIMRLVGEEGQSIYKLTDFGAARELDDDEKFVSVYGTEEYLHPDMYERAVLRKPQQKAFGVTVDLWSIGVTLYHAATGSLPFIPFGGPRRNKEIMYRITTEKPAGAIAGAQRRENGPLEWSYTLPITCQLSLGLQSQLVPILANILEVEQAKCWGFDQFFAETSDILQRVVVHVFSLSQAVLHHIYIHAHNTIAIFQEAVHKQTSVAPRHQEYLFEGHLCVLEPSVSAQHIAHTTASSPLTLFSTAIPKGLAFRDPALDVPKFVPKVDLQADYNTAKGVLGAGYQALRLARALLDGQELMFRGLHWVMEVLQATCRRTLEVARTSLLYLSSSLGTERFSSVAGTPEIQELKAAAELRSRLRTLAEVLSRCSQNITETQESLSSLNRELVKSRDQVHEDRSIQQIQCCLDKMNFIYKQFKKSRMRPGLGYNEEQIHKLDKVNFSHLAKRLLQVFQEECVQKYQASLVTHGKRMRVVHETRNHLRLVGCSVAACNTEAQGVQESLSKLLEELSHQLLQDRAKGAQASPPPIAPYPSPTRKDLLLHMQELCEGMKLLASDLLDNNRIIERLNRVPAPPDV
pIC50: −log10 of the molar value.
assay_metric: pIC50

Query CC(C)(C)OC(=O)Nc1nc(-c2ccncc2)sc1C#CCN1CCOCC1 yields pIC50 of 5.00 to 6.00

Query Nc1ncsc1C#Cc1cccc(O)c1 yields pIC50 of < 6.00

Query CC(C)(C)OC(=O)Nc1ncsc1C#CCN1C(=O)c2ccccc2C1=O yields pIC50 of 4.00 to 5.00

Query c1ccc(Cc2c[nH]c3ncsc23)cc1 [Compound A7, 6-benzyl-4H-pyrrolo[2,3-d]thiazole] yields pIC50 of 4.00 to 5.00

Query Nc1ncsc1C#Cc1cnc2[nH]ccc2c1 yields pIC50 of < 6.00

---

assay_metric: IC50

Item CC(C)(C)OC(=O)Nc1nc(-c2ccncc2)sc1C#CCN1CCOCC1 [Compound A25] ; assay system RPS6KB1 (Homo sapiens, UniProt P23443); IC50 reported as > 1000 nM

Item CC(C)(C)OC(=O)Nc1ncsc1C#CCN1C(=O)c2ccccc2C1=O [Compound A26] ; assay system RPS6KB1 (Homo sapiens, UniProt P23443); IC50 reported as > 1000 nM

Item Nc1ncsc1C#Cc1cccc(O)c1 [Compound A27, 3-(4-aminothiazol-5-ylethynyl)phenol] ; assay system RPS6KB1 (Homo sapiens, UniProt P23443); IC50 reported as 1000 to 10000 nM

Item Nc1ncsc1C#Cc1cnc2[nH]ccc2c1 [Compound A22] ; assay system RPS6KB1 (Homo sapiens, UniProt P23443); IC50 reported as 1000 to 10000 nM

Item c1ccc(Cc2c[nH]c3ncsc23)cc1 [Compound A7, 6-benzyl-4H-pyrrolo[2,3-d]thiazole] ; assay system RPS6KB1 (Homo sapiens, UniProt P23443); IC50 reported as 1000 to 10000 nM

---

assay_metric: IC50

Item CC(C)(C)OC(=O)Nc1ncsc1C#CCN1C(=O)c2ccccc2C1=O ; assay system LCK (Homo sapiens, UniProt P06239); IC50 reported as > 1000 nM

Item CC(C)(C)OC(=O)Nc1nc(-c2ccncc2)sc1C#CCN1CCOCC1 ; assay system LCK (Homo sapiens, UniProt P06239); IC50 reported as > 1000 nM

Item c1ccc(Cc2c[nH]c3ncsc23)cc1 [Compound A7, 6-benzyl-4H-pyrrolo[2,3-d]thiazole] ; assay system LCK (Homo sapiens, UniProt P06239); IC50 reported as 10000 to 100000 nM

Item Nc1ncsc1C#Cc1cnc2[nH]ccc2c1 ; assay system LCK (Homo sapiens, UniProt P06239); IC50 reported as > 1000 nM

Item Nc1ncsc1C#Cc1cccc(O)c1 ; assay system LCK (Homo sapiens, UniProt P06239); IC50 reported as 1000 to 10000 nM

---

Assign pIC50 to each entry below.
pIC50: −log10 of the molar value.

Item CC(C)(C)OC(=O)Nc1ncsc1C#CCN1C(=O)c2ccccc2C1=O ; assay system MAP3K11 (MLK3) (Homo sapiens); pIC50 reported as 5.00 to 6.00

Item c1ccc(Cc2c[nH]c3ncsc23)cc1 [Compound A7, 6-benzyl-4H-pyrrolo[2,3-d]thiazole] ; assay system MAP3K11 (MLK3) (Homo sapiens); pIC50 reported as 4.00 to 5.00

Item Nc1ncsc1C#Cc1cnc2[nH]ccc2c1 ; assay system MAP3K11 (MLK3) (Homo sapiens); pIC50 reported as 6.00 to 8.00

Item Nc1ncsc1C#Cc1cccc(O)c1 ; assay system MAP3K11 (MLK3) (Homo sapiens); pIC50 reported as 4.00 to 5.00

Item CC(C)(C)OC(=O)Nc1nc(-c2ccncc2)sc1C#CCN1CCOCC1 ; assay system MAP3K11 (MLK3) (Homo sapiens); pIC50 reported as < 6.00
